Molecular target: integrins
Assay: cell-based or functional assay
Labelling: IC50 (µM), bioactivity of cyclic III peptide analogs reported below 30 µM becomes rule met; at or above becomes rule not met.

Enquiry: Identify whether the binder KLKLKMVVAW (here or on the partner: head-to-tail cyclic; two T1 linkers (NH2CH2CH2N(SO2Me)CH2COOH) join the strands) [cyclic III peptide 4 (KLKLK-T1-MVVAW-T1)] records IC50 (µM), bioactivity of cyclic III peptide analogs below 30 µM.
Return: rule met

Enquiry: Please answer likewise for KLKLKMVASW (here or on the partner: head-to-tail cyclic; two T1 linkers (NH2CH2CH2N(SO2Me)CH2COOH) join the strands) [cyclic III peptide 5 (KLKLK-T1-MVASW-T1)]
Return: rule met

Origin of the recorded values: patent US8853149
